Each entry below lists one item and its recorded TGI value.
- Test system: DU-145 prostate
- Method Notes: NCI tumour cell line growth inhibition, 48 h

Answered examples (5):
>>> readout_value("Cn1c(N)cc(=O)nc1N")
"> 100 µM"
>>> readout_value("CCCCCCn1c(=N)n(CC(O)COc2cccc(C)c2)c2ccccc21 (stereo unspecified)")
"12.1 µM"
>>> readout_value("Cn1cc(C2=C(c3cn(CCCSC(=N)N)c4ccccc34)C(=O)NC2=O)c2ccccc21")
"12.5 µM"
>>> readout_value("COC[C@H](Cc1ccccc1)N=Cc1ccccc1")
"> 100 µM"
>>> readout_value("CCOc1c(OC)cc(CNNc2nccs2)cc1OC")
"> 100 µM"

Could you now look at the following molecule, please?
TGI recorded for this molecule, CC(=O)CC(=O)Nn1c(-c2cccs2)nc2ccc(I)cc2c1=O , is > 96.6 µM

All figures here come from PubChem BioAssay (NCI).
